- Tested on: UO-31 renal
- assay.protocol: NCI-60 one-dose screen, 48 h (100 = growth as untreated, 0 = no growth, -100 = all killed)
- experimental.context: 10 µM unless noted
This is part of a sample that, as a whole, favours compounds with a hit. Of some 83,000 tested, about 20% had one in any assay.
Let's look at some molecules and their measured growth.
reported.property: growth (%)

>>> endpoint_result("CNC1=CC(=O)c2c(C(=O)OC)c(C)[n+]([O-])c(C)c2C1=O")
90.7
>>> endpoint_result("CCN(CC)CCCN1C(=O)c2c(c(C)c3c(oc4ccc(O)cc43)c2C)C1=O")
63.7
>>> endpoint_result("Nc1nc(N)c2c(n1)NC(c1ccc(Cl)cc1)C1CCc3ccccc3C1=N2 (stereo not given)")
55.8
>>> endpoint_result("O=C1NC(=O)/C(=C/c2c(-c3ccccc3)nc3sc(COc4ccccc4)nn23)S1")
84.7
>>> endpoint_result("COc1ccc(/C=C/C(=O)c2cc(OC)c(OC)c(OC)c2)cc1OCC(=O)Nc1nc2ccc(OC(F)(F)F)cc2s1")
3.8

###

- System: MALME-3M melanoma
- assay.protocol: NCI-60 one-dose screen, 48 h
- experimental.context: 10 µM unless noted
About 83,000 compounds went through this panel and 20% of them were active in at least one assay; those are over-represented in the sample as a whole. Active and inactive are the calls of the source. The calls were made as follows: active = growth percent below 10; inactive = the rest.
Classes used: label 1 for active, label 0 for inactive

>>> category("O=C1c2ccccc2C(=O)c2c1c(C(=O)NCc1ccccc1)c1ccccn21")
"label 0"
>>> category("COc1ccc(C2=NN(C(C)=O)C(c3cn(-c4ccccc4)nc3-c3ccc(Cl)cc3)C2)cc1 (stereo not given)")
"label 0"
>>> category("COc1ccc(Oc2nc(Nc3ccc(N4CCOCC4)cc3)ncc2NC(=O)Nc2cc(OC)cc(OC)c2)cc1")
"label 1"
>>> category("COc1cccc(Nc2ncnc3cc(NC(=O)CCl)ccc23)c1")
"label 1"
>>> category("CCc1ccc(CCC(=O)Nc2ncc(Cc3ccccc3)s2)o1")
"label 0"
>>> category("N=C(N)c1ccc(-c2ccc(-c3ccccc3)s2)cc1")
"label 0"
>>> category("Cc1cccc(N2CCC(=O)NC2=S)c1")
"label 0"
>>> category("CN1CCN(Cc2ccc(NC(=O)c3cncc(C#Cc4cnc5ccc(Cl)nn45)c3)cc2C(F)(F)F)CC1")
"label 1"
>>> category("CC(=O)OC(c1ccccc1)C1CCOC1=O (stereo not given)")
"label 0"
>>> category("Cc1nc2ccccc2c(/C=C/c2ccccc2)c1C(=O)/C=C/c1ccccc1")
"label 0"
>>> category("Nc1[nH]c(=S)nc2oc(-c3ccccc3)c(-c3ccccc3)c12")
"label 0"
>>> category("COc1ccc(/C=C(/C(=O)n2cnnn2)c2cc(OC)c(OC)c(OC)c2)cc1")
"label 0"
>>> category("COc1ccc(/C=C/C(=O)c2cc(OC)c(OC)c(OC)c2)cc1OCC(=O)Nc1nc2ccc(OC(F)(F)F)cc2s1")
"label 0"
>>> category("CN1C(=O)/C(=C/c2ccc(C(=O)Nc3ncc(Cc4cccc(Cl)c4)s3)cc2)SC1=S")
"label 0"
>>> category("CN(C)c1ccc(-c2ccc3c(c2)c(-c2ccccc2)nc(=O)n3C)cn1")
"label 0"
>>> category("CCOC(=O)c1cnc2c(N=Nc3ccc(OC)cc3)c(N)nn2c1N")
"label 0"
>>> category("C[n+]1ccc(CCc2c[nH]c3ccccc23)cc1")
"label 0"
>>> category("CC(=O)/C(=C/c1ccc([N+](=O)[O-])cc1)C(=O)c1ccccc1")
"label 0"
>>> category("COc1ccc(/C=C/C(=O)c2ccc(NC(=O)CSc3nc4c([nH]3)c(=O)n(C)c(=O)n4C)cc2)cc1OC")
"label 0"
>>> category("CCN1C(=O)N(CC)C2Nn3c(s/c(=C\\c4ccccc4Br)c3=O)=NC21 (stereo not given)")
"label 0"
>>> category("O=S(=O)(NCCNc1nccc(-c2c(-c3ccc(F)c(O)c3)nc3sccn23)n1)c1ccc(F)cc1")
"label 1"
>>> category("O=c1ccc(=O)n(-c2nc(-c3ccc([N+](=O)[O-])cc3)cs2)[nH]1")
"label 0"
>>> category("O=C(NCc1cccc(CNC(=O)Nc2nc3ccccc3[nH]2)c1)Nc1nc2ccccc2[nH]1")
"label 1"
>>> category("CCOC(=O)c1cc(C(=O)c2cc(OC)c(OC)c(OC)c2)n2ccccc12")
"label 0"
>>> category("CCOc1ccc(-n2nc(C(=O)NCc3ccccc3OC)nc2-c2cc(OC)c(OC)c(OC)c2)cc1")
"label 0"
>>> category("CCCCCCCC/C=C\\CCCCCCCCOc1ccc(CC(=O)NCC[N+]2(C)CCOCC2)cc1")
"label 0"
>>> category("C=C(C)[C@@H]1CCC[C@]2(C(=O)O)CC[C@]3(C)[C@@H](CC[C@@H]4[C@@]5(C)C/C(=C/c6ccncc6)C(=O)C(C)(C)[C@@H]5CC[C@]43C)[C@@H]12")
"label 0"
>>> category("COc1cc(-c2nc3sccn3c2-c2ccnc(NCCNS(=O)(=O)c3ccc(Cl)cc3)n2)ccc1F")
"label 0"
>>> category("CO[C@H]1CC(=O)n2c3ccccc3c3c4c(c5c6ccccc6n1c5c32)C(=O)NC4=O")
"label 0"
>>> category("CN(Cc1ccccc1)c1nc(Cl)c(C2CC(c3ccccc3)=NN2c2ccccc2)s1 (stereo not given)")
"label 0"
>>> category("CCOC(=O)c1c(C)nc2c(c1N)CC(=O)N2Cc1ccc(OC)cc1")
"label 0"
>>> category("COc1ccc(NC(=O)Nc2ccc(OCCCCCC(=O)NO)cc2)cc1")
"label 0"
>>> category("COC(=O)c1cc(Br)ccc1O")
"label 0"
>>> category("O=C(NNC(=O)c1ccc(NC(=O)c2ccccn2)cc1)Nc1ccc2ccccc2c1")
"label 0"
>>> category("Cc1cc2c(cc1C)N(C(=O)CCl)CC(=O)N2")
"label 1"
>>> category("COc1ccc(/C=C/c2ccc3ccccc3n2)c(OC)c1")
"label 0"
>>> category("N#C/C(=C\\C=C\\c1ccc(-c2cc(Cl)ccc2Cl)o1)c1nc2ccccc2s1")
"label 0"
>>> category("O=C(NC1CC(F)C1)c1cc2cccnc2n1-c1ccc(Cl)c(Cl)c1 (stereo not given)")
"label 0"
>>> category("Cc1ncc(C(=O)Nc2ccc(CN3CCN(C)CC3)c(C(F)(F)F)c2)cc1C#Cc1cnc(N)c2ncccc12")
"label 1"
>>> category("CN1CCN(CCCOc2cccc3nc(Nc4ccc(F)c(F)c4)ccc23)CC1")
"label 1"

###

- Test system: PC-3 prostate
- assay.protocol: NCI-60 one-dose screen, 48 h (100 = growth as untreated, 0 = no growth, -100 = all killed)
- experimental.context: 10 µM unless noted
About 83,000 compounds went through this panel and 20% of them were active in at least one assay; those are over-represented in the sample as a whole.
reported.property: growth (%)

>>> endpoint_result("[2H]C([2H])([2H])Oc1ccc(F)cc1/C=C/C(=O)/C=C(O)/C=C/c1cc(F)ccc1OC([2H])([2H])[2H]")
93.1
>>> endpoint_result("C/C(=N\\O)c1ccc(NC(=O)CSc2nnc(-c3cc(-c4ccc(S(C)(=O)=O)cc4)nc4ccccc34)n2-c2ccccc2)cc1")
68.5
>>> endpoint_result("COc1cccc(Nc2ncnc3cc(NC(=O)CCl)ccc23)c1")
-80.3
>>> endpoint_result("COc1ccc(/C=C/C(=O)c2cc(OC)c(OC)c(OC)c2)cc1OCC(=O)Nc1nc2ccc(OC(F)(F)F)cc2s1")
33.4

###

Reported growth by item:
- Test system: MDA-MB-435 melanoma
- assay.protocol: NCI-60 one-dose screen, 48 h (100 = growth as untreated, 0 = no growth, -100 = all killed)
- experimental.context: 10 µM unless noted
The panel holds about 83,000 compounds, 20% with a hit somewhere; the sample as a whole holds those more often.
reported.property: growth (%)

>>> endpoint_result("[2H]C([2H])([2H])Oc1ccc(F)cc1/C=C/C(=O)/C=C(O)/C=C/c1cc(F)ccc1OC([2H])([2H])[2H]")
84.5
>>> endpoint_result("C=C(CNCCO)[C@@H]1CC[C@]2(CO)CC[C@]3(C)[C@H](CC[C@@H]4[C@@]5(C)CCC(N)C(C)(C)[C@@H]5CC[C@]43C)[C@@H]12 (stereo partly drawn)")
-44
>>> endpoint_result("CC1(C)CC[C@]2(C(=O)N[C@H](CO)Cc3ccccc3)CC[C@]3(C)C(=CC[C@@H]4[C@@]5(C)CCCNC(C)(C)[C@@H]5CC[C@]43C)[C@@H]2C1")
73.4
>>> endpoint_result("COc1ccc(C2=CN3CC=CC3CC2=O)cc1 (stereo not drawn)")
96.9
>>> endpoint_result("O=C1/C(=C/c2ccc(O)c(O)c2)COc2ccc(-c3ccccc3)cc21")
-6.77
>>> endpoint_result("C=C(C)[C@@H]1CCC[C@]2(C(=O)N3CCN(C)CC3)CC[C@]3(C)[C@@H](CC[C@@H]4[C@@]5(C)CC/C(=N\\NC(=O)c6ccncc6)C(C)(C)[C@@H]5CC[C@]43C)[C@@H]12")
81.8
>>> endpoint_result("CC1CCN(C(=O)CCCl)c2ccccc21 (stereo not drawn)")
123
>>> endpoint_result("CCCCNC(=O)Oc1ccc(/C(=C(/C)Cc2ccc(OC)cc2)c2ccc(OCCN3CCCCC3)cc2)cc1")
67.8
